Molecular target: Aldo-keto reductase family 1 member C2 (Homo sapiens, UniProt P52895)
Sequence (P52895 whole entry): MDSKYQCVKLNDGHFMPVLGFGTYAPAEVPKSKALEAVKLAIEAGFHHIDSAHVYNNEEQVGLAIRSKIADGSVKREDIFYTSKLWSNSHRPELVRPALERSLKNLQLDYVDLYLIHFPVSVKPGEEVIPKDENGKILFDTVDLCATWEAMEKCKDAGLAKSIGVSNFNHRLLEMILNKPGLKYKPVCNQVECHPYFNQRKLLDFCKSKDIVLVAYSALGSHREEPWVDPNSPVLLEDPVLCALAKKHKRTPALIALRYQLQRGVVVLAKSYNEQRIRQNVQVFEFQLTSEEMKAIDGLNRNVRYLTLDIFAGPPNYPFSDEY
Assay: Inhibition of human recombinant AKR1C2 using S-tetralol as substrate assessed as reduction in NADP+-dependent S-tetralol oxidation preincubated for 10 mins followed by protein addition by fluorometric assay
Metric name: IC50 (nM)
Quick reminder: number only, in nM, skip the unit.

[[record]]
compound = "CSc1ccc2cc(C(C)C(=O)O)ccc2c1 (racemic)"
metric_name = "IC50"
endpoint_value = 1500


Supply recorded IC50 for CSc1ccc2cc([C@H](C)C(=O)O)ccc2c1 here.
1350

State its IC50 for this compound: CCOc1ccc2cc(C(C)C(=O)O)ccc2c1 (racemic)
2400

Quick one: give measured IC50 for CCC(C(=O)O)c1ccc2cc(OC)ccc2c1 (racemic)
7600

Give the measured IC50 for CCc1ccc2cc(C(C)C(=O)O)ccc2c1 (racemic)
1900

Tell us which IC50 value is on record for COc1ccc2cc([C@@H](C)C(=O)O)ccc2c1
2750

Check the records and state IC50 for CCC(C(=O)NS(C)(=O)=O)c1ccc2cc(OC)ccc2c1 (racemic)
34000

Return reported IC50. Input compound: CC[C@H](C(=O)O)c1ccc2cc(OC)ccc2c1
1720

* * *

Molecular target: Prostaglandin G/H synthase 1 (Ovis aries)
Sequence (P05979 whole entry): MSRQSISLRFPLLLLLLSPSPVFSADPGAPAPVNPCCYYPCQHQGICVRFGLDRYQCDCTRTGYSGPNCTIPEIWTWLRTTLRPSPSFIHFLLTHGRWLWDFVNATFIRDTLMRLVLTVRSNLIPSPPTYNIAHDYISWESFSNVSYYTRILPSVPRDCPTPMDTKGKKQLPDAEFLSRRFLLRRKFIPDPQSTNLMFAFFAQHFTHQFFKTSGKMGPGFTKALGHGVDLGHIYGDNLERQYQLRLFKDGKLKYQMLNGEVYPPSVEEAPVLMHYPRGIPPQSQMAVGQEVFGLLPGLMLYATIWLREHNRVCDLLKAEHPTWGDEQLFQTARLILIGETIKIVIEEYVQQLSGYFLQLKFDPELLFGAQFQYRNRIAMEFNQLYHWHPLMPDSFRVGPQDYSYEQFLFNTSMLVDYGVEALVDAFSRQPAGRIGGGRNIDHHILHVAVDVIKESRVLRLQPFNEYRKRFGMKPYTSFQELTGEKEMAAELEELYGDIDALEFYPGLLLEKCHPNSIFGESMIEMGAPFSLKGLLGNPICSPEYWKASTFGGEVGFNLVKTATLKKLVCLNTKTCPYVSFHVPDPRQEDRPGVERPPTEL
Metric name: pIC50
When answering, recall that pIC50 equals minus log10 of the concentration in mol/L, and write that number alone.

Check the records and state pIC50 for CC[C@H](C(=O)O)c1ccc2cc(OC)ccc2c1
5.71

* * *

Target: Prostaglandin G/H synthase 2 (Homo sapiens, UniProt P35354)
Sequence (P35354 whole entry): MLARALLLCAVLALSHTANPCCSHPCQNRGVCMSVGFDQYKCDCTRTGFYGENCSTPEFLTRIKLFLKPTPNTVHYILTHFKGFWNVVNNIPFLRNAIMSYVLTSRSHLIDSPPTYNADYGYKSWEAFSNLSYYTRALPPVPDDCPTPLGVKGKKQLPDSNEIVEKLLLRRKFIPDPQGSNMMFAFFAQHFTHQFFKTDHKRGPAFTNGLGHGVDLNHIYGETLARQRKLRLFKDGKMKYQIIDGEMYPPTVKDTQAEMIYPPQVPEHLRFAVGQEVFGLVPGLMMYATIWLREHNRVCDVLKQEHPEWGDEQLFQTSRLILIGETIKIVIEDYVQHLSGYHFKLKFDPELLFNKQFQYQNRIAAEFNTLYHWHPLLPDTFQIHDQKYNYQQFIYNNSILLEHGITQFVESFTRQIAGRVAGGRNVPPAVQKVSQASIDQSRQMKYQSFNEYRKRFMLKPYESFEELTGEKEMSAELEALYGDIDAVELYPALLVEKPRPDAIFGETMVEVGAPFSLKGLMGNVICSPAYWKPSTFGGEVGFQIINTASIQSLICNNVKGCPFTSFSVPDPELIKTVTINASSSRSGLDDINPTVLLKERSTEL
Test: Inhibition of COX2 (unknown origin) using arachidonic acid as substrate assessed as […] by measuring TMPD oxidation preincubated for 5 mins followed by substrate/TMPD addition measured for 5 mins by colorimetric assay
Settings: read-out: IC50
Metric name: pIC50
Lab note: report pIC50 as minus log10 of the concentration in molar units, number only.

Read off the recorded pIC50 for COc1ccc2cc([C@H](C)C(=O)O)ccc2c1
6.05

* * *

Target: Aldo-keto reductase family 1 member C3 (Homo sapiens, UniProt P42330)
Sequence (P42330 whole entry): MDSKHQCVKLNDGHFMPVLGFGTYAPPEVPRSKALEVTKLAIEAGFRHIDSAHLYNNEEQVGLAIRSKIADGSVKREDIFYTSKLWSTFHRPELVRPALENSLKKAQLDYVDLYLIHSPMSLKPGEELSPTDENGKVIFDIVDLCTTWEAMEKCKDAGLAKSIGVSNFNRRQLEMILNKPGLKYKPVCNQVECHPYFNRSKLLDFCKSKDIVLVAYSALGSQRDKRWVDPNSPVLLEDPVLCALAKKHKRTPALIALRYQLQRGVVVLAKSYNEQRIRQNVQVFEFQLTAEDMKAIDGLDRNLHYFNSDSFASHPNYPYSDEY
Assay: Inhibition of human recombinant AKR1C3 using S-tetralol as substrate assessed as reduction in NADP+-dependent S-tetralol oxidation preincubated for 10 mins followed by protein addition by fluorometric assay
# log10 of IC50 listing for each entry below
log10 IC50, nM

See these solved cases before continuing.
[[record]]
molecule = "CCc1ccc2cc(C(C)C(=O)O)ccc2c1 (racemic)"
metric_name = "log10 of IC50"
endpoint_value = 2.08

[[record]]
molecule = "CCC(C(=O)NS(C)(=O)=O)c1ccc2cc(OC)ccc2c1 (racemic)"
metric_name = "log10 of IC50"
endpoint_value = 3.78

[[record]]
molecule = "CCC(C(=O)O)c1ccc2cc(OC)ccc2c1 (racemic)"
metric_name = "log10 of IC50"
endpoint_value = 2.08


Return the recorded log10 of IC50 value; entry: CSc1ccc2cc(C(C)C(=O)O)ccc2c1 (racemic)
1.78

Tell us which log10 of IC50 value is on record for CSc1ccc2cc([C@H](C)C(=O)O)ccc2c1
1.85

Name the recorded log10 of IC50 of the item CC[C@H](C(=O)O)c1ccc2cc(OC)ccc2c1 in your answer.
2.08

Report log10 of IC50, nothing else, for this molecule: CCOc1ccc2cc(C(C)C(=O)O)ccc2c1 (racemic)
2.00
